System: Pseudomonas aeruginosa Hamburgensis
test: serial dilution test in microtiter system (bacteriostasis, MIC)
Type: cell-based
experimental setup: liquid medium, 18 to 20 h at 37°C, read-out: MHK-Werte Pseud. aerug. Hbg.
MIC by entry:

>  <molecule>
CN(C)S(=O)(=O)c1ccc(Nc2ncc(NC(=O)N[C@@H](C(=O)N[C@@H]3C(=O)N4[C@@H]3SC(C)(C)[C@@H]4C(=O)O)c3ccc(O)cc3)c(O)n2)cc1

>  <MIC / µg/mL>
2

$$$$
>  <molecule>
CNS(=O)(=O)c1ccc(Nc2ncc(NC(=O)N[C@@H](C(=O)N[C@@H]3C(=O)N4[C@@H]3SC(C)(C)[C@@H]4C(=O)O)c3ccc(O)cc3)c(O)n2)cc1

>  <MIC / µg/mL>
1

$$$$
>  <molecule>
CC(=O)Oc1ccc(CNc2ncc(NC(=O)NC(C(=O)N[C@@H]3C(=O)N4[C@@H]3SC(C)(C)[C@@H]4C(=O)O)c3ccc(O)cc3)c(O)n2)cc1 (stereo partly drawn)

>  <MIC / µg/mL>
2

$$$$

---

Dear all, this message contains MIC results, target or system Proteus rettgeri BC 7.
value kind: MIC (µg/mL)

>  <compound>
CC1(C)SC2C(NC(=O)C(NC(=O)Nc3cnc(Nc4ccc(NC(N)=O)cc4)nc3O)c3ccc(O)cc3)C(=O)N2C1C(=O)O (stereo not shown)

>  <value kind>
MIC

>  <measured number>
1

$$$$
>  <compound>
CC1(C)SC2C(NC(=O)C(NC(=O)Nc3cnc(Nc4ccc(C(N)=O)cc4)nc3O)c3ccc(O)c(Cl)c3)C(=O)N2C1C(=O)O (stereo not shown)

>  <value kind>
MIC

>  <measured number>
0.5

$$$$
>  <compound>
C[S+]([O-])c1ccc(CNc2ncc(NC(=O)NC(C(=O)N[C@@H]3C(=O)N4[C@@H]3SC(C)(C)[C@@H]4C(=O)O)c3ccc(O)cc3)c(O)n2)cc1 (stereo partly shown)

>  <value kind>
MIC

>  <measured number>
1

$$$$
>  <compound>
CNS(=O)(=O)c1ccc(Nc2ncc(NC(=O)N[C@@H](C(=O)N[C@@H]3C(=O)N4[C@@H]3SC(C)(C)[C@@H]4C(=O)O)c3ccc(O)c(Cl)c3)c(O)n2)cc1

>  <value kind>
MIC

>  <measured number>
0.5

$$$$
>  <compound>
CC1(C)S[C@@H]2[C@H](NC(=O)C(NC(=O)Nc3cnc(NCc4ccc(S(N)(=O)=O)cc4)nc3O)c3ccc(O)cc3)C(=O)N2[C@H]1C(=O)O (stereo partly shown)

>  <value kind>
MIC

>  <measured number>
0.5

$$$$
>  <compound>
CC1(C)SC2C(NC(=O)C(NC(=O)Nc3cnc(Nc4ccc(C(N)=O)cc4)nc3O)c3ccccc3)C(=O)N2C1C(=O)O (stereo not shown)

>  <value kind>
MIC

>  <measured number>
0.25

$$$$
>  <compound>
CC1(C)S[C@@H]2[C@H](NC(=O)C(NC(=O)Nc3cnc(NCc4ccc(O)cc4)nc3O)c3ccc(O)cc3)C(=O)N2[C@H]1C(=O)O (stereo partly shown)

>  <value kind>
MIC

>  <measured number>
0.5

$$$$
>  <compound>
CNS(=O)(=O)c1ccc(Nc2ncc(NC(=O)N[C@@H](C(=O)N[C@@H]3C(=O)N4[C@@H]3SC(C)(C)[C@@H]4C(=O)O)c3ccccc3)c(O)n2)cc1

>  <value kind>
MIC

>  <measured number>
0.5

$$$$
>  <compound>
CC1(C)SC2C(NC(=O)C(NC(=O)Nc3cnc(Nc4ccc(S(N)(=O)=O)c(O)c4)nc3O)c3ccccc3)C(=O)N2C1C(=O)O (stereo not shown)

>  <value kind>
MIC

>  <measured number>
0.25

$$$$
>  <compound>
CC1(C)S[C@@H]2[C@H](NC(=O)[C@H](NC(=O)N3CCN(S(C)(=O)=O)C3=O)c3ccccc3)C(=O)N2[C@H]1C(=O)O [B, Mezlocillin, reference compound]

>  <value kind>
MIC

>  <measured number>
1

$$$$
>  <compound>
CC1(C)S[C@@H]2[C@H](NC(=O)[C@H](NC(=O)Nc3cnc(Nc4cccc(S(N)(=O)=O)c4)nc3O)c3ccc(O)cc3)C(=O)N2[C@H]1C(=O)O

>  <value kind>
MIC

>  <measured number>
0.25

$$$$
>  <compound>
CNS(=O)(=O)c1ccc(Nc2ncc(NC(=O)N[C@@H](C(=O)N[C@@H]3C(=O)N4[C@@H]3SC(C)(C)[C@@H]4C(=O)O)c3ccc(O)cc3)c(O)n2)cc1

>  <value kind>
MIC

>  <measured number>
0.5

$$$$
>  <compound>
CC1(C)SC2C(NC(=O)C(NC(=O)Nc3cnc(Nc4ccc(S(C)(=O)=O)cc4)nc3O)c3ccccc3)C(=O)N2C1C(=O)O (stereo not shown)

>  <value kind>
MIC

>  <measured number>
0.12

$$$$
>  <compound>
CC(=O)Oc1ccc(CNc2ncc(NC(=O)NC(C(=O)N[C@@H]3C(=O)N4[C@@H]3SC(C)(C)[C@@H]4C(=O)O)c3ccc(O)cc3)c(O)n2)cc1 (stereo partly shown)

>  <value kind>
MIC

>  <measured number>
1

$$$$
>  <compound>
CNC(=O)c1ccc(Nc2ncc(NC(=O)NC(C(=O)NC3C(=O)N4C3SC(C)(C)C4C(=O)O)c3ccc(O)cc3)c(O)n2)cc1 (stereo not shown)

>  <value kind>
MIC

>  <measured number>
0.5

$$$$
>  <compound>
CCCCS(=O)(=O)c1ccc(Nc2ncc(NC(=O)NC(C(=O)NC3C(=O)N4C3SC(C)(C)C4C(=O)O)c3ccc(O)cc3)c(O)n2)cc1 (stereo not shown)

>  <value kind>
MIC

>  <measured number>
0.25

$$$$

The measurements presented in this section are drawn from patent EP0051773A1.
